FYI, the data here is from ChEMBL document CHEMBL3301361.

- protocol-description: in vitro
- condition-parameters: human, plasma, PPB
Items are presented alongside their recorded fraction unbound at 5 h.
assay-metric: fraction unbound at 5 h

# entry-smiles, measured-number
rows = [
    ("COc1cccc(S(=O)(=O)c2c(C)n(CC(=O)O)c3ccc(C)cc23)c1", 0.0063),
    ("N#Cc1ccc(C(=O)N2CCC3(CC2)N=C(N)c2c(F)ccc(F)c2N3)cn1", 0.134),
    ("CCC[C@@H](c1ccc(C(=O)O)c(Oc2cccc(Cl)c2)c1)N1CCC[C@H](n2cc(C)c(=O)[nH]c2=O)C1", 0.007),
    ("COc1ccc(-c2nc3c(NCCCNC(=O)C4(CN)CC4)c(Br)cnc3[nH]2)cc1", 0.0293),
    ("CCCc1cc(C2=N[C@@H](C(=O)NO)CO2)cc(OC)c1OC", 0.0568),
    ("c1ccc2[nH]c(CCCc3nc4ccccc4[nH]3)nc2c1", 0.0031),
    ("CC[C@H](CO)Nc1nc(SCc2ccccc2)nc2[nH]c(=O)sc12", 0.0016),
    ("COc1cc2ncc(C(N)=O)c(Nc3cccc(Cl)c3Cl)c2cc1N1CCN(C)CC1", 0.0447),
    ("N#Cc1cnn2c(NC3CC3)cc(-c3cccs3)nc12", 0.016),
    ("CCN1CCC[C@H]1CNC(=O)c1cc(Br)cc(OC)c1OC", 0.54),
    ("Cc1cnc(Nc2cc(N3CCN(C)CC3)nc(N[C@@H](C)c3ccc(F)cn3)n2)s1", 0.0467),
    ("N#Cc1c(O)nc(N)nc1-c1ccccc1", 0.0366),
    ("Cc1ncccc1Oc1ncnc(OC2CCN(C(=O)OC(C)C)CC2)c1C", 0.0079),
    ("O=C(CCS(=O)(=O)c1ccc(Br)cc1)NCCc1ccccc1", 0.04),
    ("N#Cc1cccc(-c2cc(C(F)(F)F)ccc2OCC(=O)O)c1", 0.0139),
    ("COc1ccccc1Oc1c(NS(=O)(=O)c2ccc(C(C)(C)C)cc2)nc(-c2ncccn2)nc1OCCO", 0.013),
    ("CCN(Cc1cc(C(F)(F)F)ccc1-c1cc(CC(=O)O)ccc1OC)C(=O)NCc1ccccc1", 0.0171),
    ("COc1ncc(-c2c(C)ccc(F)c2CCNC(=O)c2ccc(OCC(F)(F)F)nc2)cn1", 0.002),
    ("CC(=O)Nc1ccc2c(c1)N(c1cc(NC3CC3)n3ncc(C#N)c3n1)CCO2", 0.0752),
    ("CCC(CC)n1nc(C)c(C(=O)N[C@@H](C)C(C)(C)C)c1NS(=O)(=O)c1ccc(C)cc1", 0.02),
    ("O=C1Cc2cc(CCN3CCN(c4nsc5ccccc45)CC3)c(Cl)cc2N1", 0.001),
]
